Assay: Clinical study: plasma pharmacokinetics, film vs Singulair tablet
Type: in vivo
Settings: human, oral, 10 mg, clinical trials of the film, read-out: Tmax of plasma levels
Method: We have performed a clinical study of our product to determine the pharmacokinetics of the API loaded into this pharmaceutical platform. […] Singulair® is the marketed formulation of MTL, commonly prescribed for asthma sufferers. It consists of a 10 mg loaded API tablet. The Cmax and Tmax values are listed below, see Table 2. […] These higher values for our films means that we could load less API into the film product and achieve the same Cmax/AUC as the Singulair® reference product. […]
Property measured: Tmax

Structure	Result
CC(C)(O)c1ccccc1CC[C@@H](SCC1(CC(=O)O)CC1)c1cccc(/C=C/c2ccc3ccc(Cl)cc3n2)c1	2 to 4 h
